Kindly supply the reported Tumor volume, Day 18 values for the records listed here.
- Tested on: HCT-116 colon cancer xenografts
- procedure text: Tumor growth inhibition of HCT-116 colon cancer xenografts in tumor-bearing nude mice (tumor volume, TGI %, RTV, T/C %)
- Type: in vivo, Balb/c Nude mice
- condition info: Day 18; G3-G9 groups; single IP dose; Mean±SEM
Marks after values point to notes of the source that are not given here.

Would you kindly share the measured Tumor volume, Day 18 for CCCCOC(=O)Nc1nc(=O)n([C@@H]2O[C@H](CO)[C@@H](O)C2(F)F)cc1Br ?
1436.76 ± 0.00 mm^3

Can you look up the measured Tumor volume, Day 18 of O=C(Nc1ccn([C@@H]2O[C@H](CO)[C@@H](O)C2(F)F)c(=O)n1)OCc1ccccc1 for me?
260.52 ± 51.15** mm^3

Could you tell me which Tumor volume, Day 18 is on file for O=C(Nc1nc(=O)n([C@@H]2O[C@H](CO)[C@@H](O)C2(F)F)cc1Br)OCc1ccccc1 ?
636.39 ± 30.26* mm^3

Returns the measured Tumor volume, Day 18 for the input molecule. Input: CC(C)(C)OC(=O)Nc1ccn([C@@H]2O[C@H](COC(=O)Cn3cnc([N+](=O)[O-])c3)[C@@H](O)C2(F)F)c(=O)n1
907.03 ± 187.09** mm^3

Please look up its Tumor volume, Day 18: CC(C)(C)OC(=O)Nc1ccn([C@@H]2O[C@H](CO)[C@@H](O)C2(F)F)c(=O)n1
1004.83 ± 385.58 mm^3

Looking for the measured Tumor volume, Day 18 of O=C(Nc1ccn([C@@H]2O[C@H](CO)[C@@H](O)C2(F)F)c(=O)n1)OCc1ccc([N+](=O)[O-])cc1 , can you help?
235.85 ± 70.86** mm^3

----------
- Test system: HCT-116 colon cancer xenografts
- procedure text: Tumor growth inhibition of HCT-116 colon cancer xenografts in tumor-bearing nude mice (tumor volume, TGI %, RTV, T/C %)
- Type: in vivo, Balb/c Nude mice
- condition info: Day 25; G10-G16 groups; single IP 400 mg/kg; Mean±SEM
So I've got a bunch of compounds here, and I need their Day 25 (RTV) values.
Note: the reply should be a number with no unit written.

Observed Day 25 (RTV) on HCT-116 colon cancer xenografts for O=C(COc1nc(Cl)c(Cl)cc1Cl)OCC1OC(n2cc(-c3cn(Cc4ccccc4)nn3)c(NC(=O)OCc3ccc([N+](=O)[O-])cc3)nc2=O)C(F)(F)C1O (stereo not drawn) , please.
30.60

Give recorded Day 25 (RTV) with HCT-116 colon cancer xenografts for the following compound: CCCCOC(=O)Nc1nc(=O)n(C2OC(COC(=O)COc3nc(Cl)c(Cl)cc3Cl)C(O)C2(F)F)cc1-c1cn(Cc2ccccc2)nn1 (stereo not drawn)
17.32

// lookup Day 25 (RTV) | system=HCT-116 colon cancer xenografts | key= CCCCOC(=O)Nc1nc(=O)n(C2OC(COC(=O)COc3nc(Cl)c(Cl)cc3Cl)C(O)C2(F)F)cc1I (stereo not drawn)
30.73

----------
Task for the reader: assign each of the following molecules its reported Weight of mice, Day 6.
- condition info: Day 6; G3-G9 groups; single IP dose; Mean±SEM
Only the number, expressed in g, is required.

Any idea what its Weight of mice, Day 6 is? The molecule is CCCCOC(=O)Nc1nc(=O)n([C@@H]2O[C@H](CO)[C@@H](O)C2(F)F)cc1Br
19.40

Quick check: Weight of mice, Day 6 of O=C(Nc1ccn([C@@H]2O[C@H](CO)[C@@H](O)C2(F)F)c(=O)n1)OCc1ccccc1 ?
20.06

Sample O=C(Nc1nc(=O)n([C@@H]2O[C@H](CO)[C@@H](O)C2(F)F)cc1Br)OCc1ccccc1 — what was its Weight of mice, Day 6?
20.60

If you can, please state the reported Weight of mice, Day 6 value of O=C(Nc1ccn([C@@H]2O[C@H](CO)[C@@H](O)C2(F)F)c(=O)n1)OCc1ccc([N+](=O)[O-])cc1 .
20.82

Name the recorded Weight of mice, Day 6 for CC(C)(C)OC(=O)Nc1ccn([C@@H]2O[C@H](COC(=O)Cn3cnc([N+](=O)[O-])c3)[C@@H](O)C2(F)F)c(=O)n1 .
21.02

Request the reported Weight of mice, Day 6 associated with CC(C)(C)OC(=O)Nc1ccn([C@@H]2O[C@H](CO)[C@@H](O)C2(F)F)c(=O)n1
21.35

----------
- condition info: Day 11; G10-G16 groups; single IP 400 mg/kg; Mean±SEM
recorded endpoint: Weight change rate, Day 11 (%)
I only need the number, in %, no unit after it.

Given the compound CCCCOC(=O)Nc1nc(=O)n(C2OC(COC(=O)COc3nc(Cl)c(Cl)cc3Cl)C(O)C2(F)F)cc1Br (stereo not drawn) , what is its reported Weight change rate, Day 11?
3.60

Returns the measured Weight change rate, Day 11 for the input compound. Input: O=C(COc1nc(Cl)c(Cl)cc1Cl)OCC1OC(n2cc(-c3cn(Cc4ccccc4)nn3)c(NC(=O)OCc3ccc([N+](=O)[O-])cc3)nc2=O)C(F)(F)C1O (stereo not drawn)
0.61

Entry under review: CCCCOC(=O)Nc1nc(=O)n(C2OC(COC(=O)COc3nc(Cl)c(Cl)cc3Cl)C(O)C2(F)F)cc1-c1cn(Cc2ccccc2)nn1 (stereo not drawn) . Reported Weight change rate, Day 11?
4.46

Need Weight change rate, Day 11 of O=C(COc1nc(Cl)c(Cl)cc1Cl)OC[C@H]1O[C@@H](n2cc(Br)c(NC(=O)OCc3ccccc3)nc2=O)C(F)(F)C1O (stereo partly drawn) , thanks.
2.77

Quick one: Weight change rate, Day 11 of CCCCOC(=O)Nc1nc(=O)n(C2OC(COC(=O)COc3nc(Cl)c(Cl)cc3Cl)C(O)C2(F)F)cc1I (stereo not drawn) ?
1.05

Fill in: Weight change rate, Day 11 of CCCCOC(=O)Nc1nc(=O)n([C@@H]2O[C@H](COC(=O)Cn3cnc([N+](=O)[O-])c3)C(O)C2(F)F)cc1I (stereo partly drawn) is ___
3.34

----------
Exercise: for every item that follows, state its recorded Weight of mice, Day 9.
- condition info: Day 9; G10-G16 groups; single IP 400 mg/kg; Mean±SEM
Could you give me the number in g? Just the number is fine.

Can you share its Weight of mice, Day 9? I mean this molecule: O=C(COc1nc(Cl)c(Cl)cc1Cl)OCC1OC(n2cc(-c3cn(Cc4ccccc4)nn3)c(NC(=O)OCc3ccc([N+](=O)[O-])cc3)nc2=O)C(F)(F)C1O (stereo not drawn)
20.47

Requested read-out: Weight of mice, Day 9. Entry: CCCCOC(=O)Nc1nc(=O)n(C2OC(COC(=O)COc3nc(Cl)c(Cl)cc3Cl)C(O)C2(F)F)cc1I (stereo not drawn)
20.43

Would you mind telling me what Weight of mice, Day 9 value was observed for CCCCOC(=O)Nc1nc(=O)n([C@@H]2O[C@H](COC(=O)Cn3cnc([N+](=O)[O-])c3)C(O)C2(F)F)cc1I (stereo partly drawn) ?
20.45

Which Weight of mice, Day 9 is listed for O=C(COc1nc(Cl)c(Cl)cc1Cl)OC[C@H]1O[C@@H](n2cc(Br)c(NC(=O)OCc3ccccc3)nc2=O)C(F)(F)C1O (stereo partly drawn) ?
20.50

Item CCCCOC(=O)Nc1nc(=O)n(C2OC(COC(=O)COc3nc(Cl)c(Cl)cc3Cl)C(O)C2(F)F)cc1-c1cn(Cc2ccccc2)nn1 (stereo not drawn) has what recorded Weight of mice, Day 9?
21.00

Bench note: what Weight of mice, Day 9 did CCCCOC(=O)Nc1nc(=O)n(C2OC(COC(=O)COc3nc(Cl)c(Cl)cc3Cl)C(O)C2(F)F)cc1Br (stereo not drawn) show?
21.03

----------
- Tested on: HCT-116 colon cancer xenografts
- procedure text: Tumor growth inhibition of HCT-116 colon cancer xenografts in tumor-bearing nude mice (tumor volume, TGI %, RTV, T/C %)
- Format: in vivo, Balb/c Nude mice
- condition info: Day 4; G10-G16 groups; single IP 400 mg/kg; Mean±SEM
Assign 1 to entries whose Day 4 (RTV) meets or exceeds 2; assign 0 to the rest.

Please tell me: is the molecule O=C(COc1nc(Cl)c(Cl)cc1Cl)OCC1OC(n2cc(-c3cn(Cc4ccccc4)nn3)c(NC(=O)OCc3ccc([N+](=O)[O-])cc3)nc2=O)C(F)(F)C1O (stereo not drawn) at or over 2 in terms of Day 4 (RTV)?
0

Is Day 4 (RTV) at least 2? Consider CCCCOC(=O)Nc1nc(=O)n([C@@H]2O[C@H](COC(=O)Cn3cnc([N+](=O)[O-])c3)C(O)C2(F)F)cc1I (stereo partly drawn)
0

Does the molecule CCCCOC(=O)Nc1nc(=O)n(C2OC(COC(=O)COc3nc(Cl)c(Cl)cc3Cl)C(O)C2(F)F)cc1Br (stereo not drawn) have recorded Day 4 (RTV) that is 2 or more?
1

State whether the measured Day 4 (RTV) reaches 2, counting equality as reaching it, for CCCCOC(=O)Nc1nc(=O)n(C2OC(COC(=O)COc3nc(Cl)c(Cl)cc3Cl)C(O)C2(F)F)cc1-c1cn(Cc2ccccc2)nn1 (stereo not drawn)
0

# check: Day 4 (RTV) of O=C(COc1nc(Cl)c(Cl)cc1Cl)OC[C@H]1O[C@@H](n2cc(Br)c(NC(=O)OCc3ccccc3)nc2=O)C(F)(F)C1O (stereo partly drawn) is greater than or equal to 2
0

State whether the measured Day 4 (RTV) reaches 2, counting equality as reaching it, for CCCCOC(=O)Nc1nc(=O)n(C2OC(COC(=O)COc3nc(Cl)c(Cl)cc3Cl)C(O)C2(F)F)cc1I (stereo not drawn)
0
